Origin of measurements: patent US12187705B2

Tested on: Ctenocephalides felis
Assay: Ctenocephalides felis in-vitro contact test adult cat flea
Type: in vivo
Settings: Ctenocephalides felis; 5 μg/cm^2 (=500 g/ha), after 48 hours; read-out: efficacy (fleas dead or moribund)
# pest or weed control at 5 µg/cm2, 5 µg/cm2 values compiled below
State just the number; it will be interpreted in %.

Q: Please report pest or weed control at 5 µg/cm2, 5 µg/cm2 for the following compound: "C[C@@H](NC(=O)c1cc(Cl)cc(S(=O)(=O)c2ccc(F)cc2)c1)c1ncnn1-c1ncccn1"
Result: 90

Q: Please report pest or weed control at 5 µg/cm2, 5 µg/cm2 for the following compound: CC(c1ncnn1-c1ncccn1)N(CC1CC1)C(=O)c1cc(Cl)c(Cl)s1 (stereo not shown)
Result: 100

Q: Please report pest or weed control at 5 µg/cm2, 5 µg/cm2 for the following compound: CC(c1ncnn1-c1ncccn1)N(CC1CC1)C(=O)c1cccc(S(=O)(=O)C(F)(F)F)c1 (stereo not shown)
Result: 90

Q: Please report pest or weed control at 5 µg/cm2, 5 µg/cm2 for the following compound: "C[C@@H](NC(=O)c1cc(Cl)cc(S(=O)(=O)C2CC2)c1)c1ncnn1-c1ncccn1"
Result: 100

Q: Please report pest or weed control at 5 µg/cm2, 5 µg/cm2 for the following compound: CC(c1ncnn1-c1ncccn1)N(CC1CC1)C(=O)c1cncc(S(C)(=O)=O)c1 (stereo not shown)
Result: 100

Q: Please report pest or weed control at 5 µg/cm2, 5 µg/cm2 for the following compound: "CON=C(C)c1cc(Cl)cc(C(=O)N[C@@H](C)c2ncnn2-c2ncccn2)c1"
Result: 100

Q: Please report pest or weed control at 5 µg/cm2, 5 µg/cm2 for the following compound: CC(c1ncnn1-c1ncccn1)N(CC1CC1)C(=O)c1cc(Cl)cc(S(=O)(=O)C(F)(F)F)c1 (stereo not shown)
Result: 100

Q: Please report pest or weed control at 5 µg/cm2, 5 µg/cm2 for the following compound: "CCS(=O)(=O)c1cc(Cl)cc(C(=O)N[C@@H](C)c2ncnn2-c2ncccn2)c1"
Result: 100

====

# mortality at 4 ppm values compiled below
System: Myzus persicae
Experiment: Myzus persicae oral test
Type: in vivo
Conditions: 120 h
Protocol: To produce a suitable preparation of active compound, 1 part by weight of active compound is mixed with the stated amount of solvent, and the concentrate is diluted with water to the desired concentration. 50 μl compound solution is filled in microtiter plates and 150 μl IPL41 insect medium (33%+15% sugar) is added to obtain a total volume of 200 μl per well. […] After 5 days mortality in % is determined. […]
Form field: result (number plus unit)

Q: Please report mortality at 4 ppm for the following molecule: CCS(=O)(=O)c1cc(Cl)cc(C(=O)N[C@@H](C)c2ncnn2-c2ncccn2)c1 [Example I-044]
Result: 100%

Q: Please report mortality at 4 ppm for the following molecule: C[C@@H](NC(=O)c1cc(Cl)cc(S(=O)(=O)c2ccc(F)cc2)c1)c1ncnn1-c1ncccn1 [Example I-043]
Result: 100%

Q: Please report mortality at 4 ppm for the following molecule: C[C@@H](NC(=O)c1cc(Cl)cc(S(=O)(=O)C(F)(F)F)c1)c1ncnn1-c1ccccn1 [Example I-068]
Result: 90%

Q: Please report mortality at 4 ppm for the following molecule: CC(NC(=O)c1cc(Cl)cc(S(C)(=O)=O)c1)c1ncnn1-c1ncccn1 (centres unmarked) [Example I-020]
Result: 100%

Q: Please report mortality at 4 ppm for the following molecule: CSc1cc(Cl)cc(C(=O)N[C@H](C)c2ncnn2-c2ccc(C#N)cn2)c1 [Example I-066]
Result: 90%

====

Tested on: Myzus persicae
Assay: Myzus persicae oral test
Format: in vivo
Conditions: 120 h
# mortality at 4 ppm values compiled below
Form field: result (number plus unit)

// solved cases for mortality at 4 ppm follow
# compound, mortality at 4 ppm
measured = [
    ("CC(c1ncnn1-c1ncccn1)N(CC1CC1)C(=O)c1cncc(S(=O)(=O)C(F)(F)F)c1 (stereo not drawn)", "90%"),
    ("C[C@@H](NC(=O)c1cc(Cl)cc([S+](C)[O-])c1)c1ncnn1-c1ccc(C#N)cn1 (stereo partly drawn)", "100%"),
    ("C[C@@H](NC(=O)c1cc(Cl)cc(S(C)(=O)=O)c1)c1ncnn1-c1ncc(C(F)(F)F)cn1", "100%"),
    ("CC(NC(=O)c1cc(Cl)cc(-n2cccn2)c1)c1ncnn1-c1ncccn1 (stereo not drawn)", "100%"),
    ("C[C@H](NC(=O)c1cc(Cl)cc(S(C)(=O)=O)c1)c1ncnn1-c1ccc(OC(F)F)cn1", "100%"),
]

Q: Report measured mortality at 4 ppm on Myzus persicae; entry: "CC(C)Sc1cc(Cl)cc(C(=O)N[C@@H](C)c2ncnn2-c2ncccn2)c1"
Result: 100%

Q: Report measured mortality at 4 ppm on Myzus persicae; entry: "C[C@H](NC(=O)c1cc(Cl)cc(S(=O)(=O)C(F)(F)F)c1)c1ncnn1-c1ncccn1"
Result: 100%

Q: Report measured mortality at 4 ppm on Myzus persicae; entry: C[C@H](NC(=O)c1cc(Cl)cc([S+]([O-])CC(F)(F)F)c1)c1ncnn1-c1ncccn1 (stereo partly drawn)
Result: 100%

Q: Report measured mortality at 4 ppm on Myzus persicae; entry: CCN(C(=O)c1cc(Cl)cc(S(C)(=O)=O)c1)C(C)c1ncnn1-c1ncccn1 (stereo not drawn)
Result: 100%

Q: Report measured mortality at 4 ppm on Myzus persicae; entry: CC(c1ncnn1-c1ncccn1)N(CC1CC1)C(=O)c1cc(Cl)cc(Cl)c1Cl (stereo not drawn)
Result: 100%

Q: Report measured mortality at 4 ppm on Myzus persicae; entry: CC(c1ncnn1-c1ncccn1)N(CC1CC1)C(=O)c1cc(Cl)cc(S(C)(=O)=O)c1 (stereo not drawn)
Result: 90%

Q: Report measured mortality at 4 ppm on Myzus persicae; entry: "C[C@H](NC(=O)c1cc(Cl)cc(S(=O)(=O)CC(F)(F)F)c1)c1ncnn1-c1ncccn1"
Result: 90%

Q: Report measured mortality at 4 ppm on Myzus persicae; entry: "C[C@@H](NC(=O)c1cc(Cl)cc(S(=O)(=O)C(F)(F)F)c1)c1ncnn1-c1ccc(C#N)cn1"
Result: 100%

Q: Report measured mortality at 4 ppm on Myzus persicae; entry: "C[C@H](NC(=O)c1cc(Cl)cc(S(C)(=O)=O)c1)c1nc(C(F)(F)F)nn1-c1ncccn1"
Result: 100%

Q: Report measured mortality at 4 ppm on Myzus persicae; entry: CC(c1ncnn1-c1ncccn1)N(CC1CC1)C(=O)c1cc(Cl)cc(C(=O)NC2CC2)c1 (stereo not drawn)
Result: 100%

====

Test system: Rhipicephalus sanguineus
Experiment: Rhipicephalus sanguineus in-vitro contact test with adult brown dog ticks
Assay type: in vivo
Conditions: 5 μg/cm^2 (=500 g/ha), after 48 hours
# efficacy (ticks dead or moribund) values compiled below

// solved cases for efficacy (ticks dead or moribund) follow
# compound, target system, efficacy (ticks dead or moribund)
data = [
    ("CC(NC(=O)c1cc(F)cc(C2CC2)c1)c1ncnn1-c1ncccn1 (stereo not shown)", "Rhipicephalus sanguineus", "100%"),
    ("Cc1nc(C(C)NC(=O)c2cc(Cl)cc(S(C)(=O)=O)c2)n(-c2ncccn2)n1 (stereo not shown)", "Rhipicephalus sanguineus", "80%"),
    ("CC(NC(=O)c1cc(Cl)cc(S(C)(=O)=O)c1)c1ncnn1-c1ncc(F)cn1 (stereo not shown)", "Rhipicephalus sanguineus", "80%"),
]

Q: Report measured efficacy (ticks dead or moribund) on Rhipicephalus sanguineus; entry: CC(NC(=O)c1cc(Cl)cc(S(C)(=O)=O)c1)c1ncnn1-c1ncccn1 (stereo not shown)
Result: 80%

====

Tested on: Myzus persicae
Experiment: Myzus persicae oral test
Type: in vivo
Settings: 120 h
readout type: mortality at 4 ppm
Form field: result (number plus unit)

# compound, target system, mortality at 4 ppm
rows = [
    ("CC(c1ncnn1-c1ncccn1)N(CCC(F)(F)F)C(=O)c1cc(Cl)cc(S(C)(=O)=O)c1 (stereo not drawn)", "Myzus persicae", "100%"),
    ("CC(c1ncnn1-c1ncccn1)N(CC(F)F)C(=O)c1cc(Cl)cc(S(C)(=O)=O)c1 (stereo not drawn)", "Myzus persicae", "100%"),
    ("CC(c1ncnn1-c1ncccn1)N(CC1CC1)C(=O)c1cc(Cl)cc(S(=O)(=O)C(F)(F)F)c1 (stereo not drawn)", "Myzus persicae", "100%"),
]

Q: Please report mortality at 4 ppm for the following compound: CC(c1ncnn1-c1ncccn1)N(CC1CC1)C(=O)c1cccc(S(=O)(=O)C(F)(F)F)c1 (stereo not drawn)
Result: 90%

Q: Please report mortality at 4 ppm for the following compound: "C[C@@H](NC(=O)c1cc(Cl)cc(S(C)(=O)=O)c1)c1ncnn1-c1ncc(Cl)cn1"
Result: 100%

====

Test system: cattle ticks (Boophilus microplus) strane Parhurst, SP-resistant
Experiment: Boophilus microplus dip test
Assay type: in vivo
Conditions: 100 ppm, egg deposition after 7 days
# efficacy (infertile eggs) values compiled below
State just the number; it will be interpreted in %.

Q: Please report efficacy (infertile eggs) for the following compound: CC(NC(=O)c1cc(Cl)cc(S(C)(=O)=O)c1)c1ncnn1-c1ncc(F)cn1 (stereo not drawn)
Result: 90

Q: Please report efficacy (infertile eggs) for the following compound: CC(NC(=O)c1cc(Cl)cc(S(C)(=O)=O)c1)c1ncnn1-c1ccc(C#N)cn1 (stereo not drawn)
Result: 100

Q: Please report efficacy (infertile eggs) for the following compound: CC(NC(=O)c1cc(Cl)cc(C2CC2)c1)c1ncnn1-c1ncccn1 (stereo not drawn)
Result: 90

Q: Please report efficacy (infertile eggs) for the following compound: "CC(C)Sc1cc(Cl)cc(C(=O)N[C@@H](C)c2ncnn2-c2ncccn2)c1"
Result: 100

Q: Please report efficacy (infertile eggs) for the following compound: "C[C@@H](NC(=O)c1cc(Cl)cc(S(C)(=O)=O)c1)c1ncnn1-c1ncc(Cl)cn1"
Result: 100
